Molecular target: Glyceraldehyde-3-phosphate dehydrogenase, glycosomal (Trypanosoma cruzi, UniProt P22513)
Sequence (P22513 whole entry): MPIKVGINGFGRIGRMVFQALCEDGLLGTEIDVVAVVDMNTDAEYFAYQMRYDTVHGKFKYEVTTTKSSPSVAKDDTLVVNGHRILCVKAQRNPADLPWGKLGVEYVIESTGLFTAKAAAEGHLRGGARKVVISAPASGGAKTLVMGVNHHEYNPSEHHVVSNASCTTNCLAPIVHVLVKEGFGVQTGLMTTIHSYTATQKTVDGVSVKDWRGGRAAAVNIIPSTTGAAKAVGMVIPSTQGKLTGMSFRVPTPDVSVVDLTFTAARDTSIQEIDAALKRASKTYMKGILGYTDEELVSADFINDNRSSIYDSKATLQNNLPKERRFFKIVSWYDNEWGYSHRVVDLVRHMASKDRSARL
OUTCOME_MEASURE: pIC50
Give bare numbers, as −log10 of the molar value.

Task item: Tell us which pIC50 value is on record for "CCOC(=O)c1cn([C@@H]2O[C@H](COC(=O)c3ccccc3)[C@@H](OC(=O)c3ccccc3)[C@H]2OC(=O)c2ccccc2)c2ccc(Cl)cc2c1=O"
Reply: 4.39

====

Biological target: UniProt:P22513
Assay: Non-competitive inhibition of Trypanosoma cruzi glycosomal GAPDH active site by ITC method
Conditions: read-out: Ki(app)
OUTCOME_MEASURE: Ki (µM)
Numbers only, in µM.

Some molecules with recorded Ki:
O=C(O)c1cn([C@@H]2O[C@H](CO)[C@@H](O)[C@H]2O)c2cc(Br)ccc2c1=O	151
COc1ccc2c(=O)c(C(=O)O)cn([C@@H]3O[C@H](CO)[C@@H](O)[C@H]3O)c2c1	105

Proceeding to the next molecule to report its Ki.
Task item: Answer with Ki of "COc1ccc2c(c1)c(=O)c(C(=O)O)cn2[C@@H]1O[C@H](CO)[C@@H](O)[C@H]1O" measured for UniProt:P22513.
Reply: 305

====

Biological target: Glyceraldehyde-3-phosphate dehydrogenase, glycosomal (Trypanosoma cruzi)
Assay: Competitive inhibition of Trypanosoma cruzi glycosomal GAPDH NAD+ binding site by ITC method
Details: read-out: Ki(app)
Please respond with reported pKi for every item in the list.
Give bare numbers, as −log10 of the molar value.

Example results:
O=C(O)c1cn([C@@H]2O[C@H](CO)[C@@H](O)[C@H]2O)c2cc(Br)ccc2c1=O	4.80
O=C(O)c1cn([C@@H]2O[C@H](CO)[C@@H](O)[C@H]2O)c2ccc(Br)cc2c1=O	4.53

Next item in the queue.
Task item: Give me measured pKi, please, for this compound: "O=C(O)c1cn([C@@H]2O[C@H](CO)[C@@H](O)[C@H]2O)c2ccc(Cl)cc2c1=O"
Reply: 4.49

====

Target: Glyceraldehyde-3-phosphate dehydrogenase, glycosomal (Trypanosoma cruzi, UniProt P22513)
Test: Competitive inhibition of Trypanosoma cruzi glycosomal GAPDH NAD+ binding site by ITC method
Settings: read-out: Ki(app)
OUTCOME_MEASURE: pKi
One number for each entry, as −log10 of the molar value.

Some solved cases for reference:
Cc1ccc2c(c1)c(=O)c(C(=O)O)cn2[C@@H]1O[C@H](CO)[C@@H](O)[C@H]1O	4.24
Cc1ccc2c(=O)c(C(=O)O)cn([C@@H]3O[C@H](CO)[C@@H](O)[C@H]3O)c2c1	4.77
COc1ccc2c(=O)c(C(=O)O)cn([C@@H]3O[C@H](CO)[C@@H](O)[C@H]3O)c2c1	4.23

Then this molecule:
Task item: State its pKi for this molecule: "COc1ccc2c(c1)c(=O)c(C(=O)O)cn2[C@@H]1O[C@H](CO)[C@@H](O)[C@H]1O"
Reply: 4.73

Values compiled from ChEMBL document CHEMBL2407047.
